Test system: NCI-H1648 (Lung Adenocarcinoma);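 note: after 72 h of two-drug dosing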
experiment_summary: Bliss excess, mean over the matrix (fraction); higher = more synergy
parameter_measured: Bliss excess
// print number alone

Recorded results for 5 molecules are shown here.
molecule | assayed_target | experimental_result
CC1(C)CCC(CN2CCN(c3ccc(C(=O)NS(=O)(=O)c4ccc(NCC5CCOCC5)c([N+](=O)[O-])c4)c(Oc4cnc5[nH]ccc5c4)c3)CC2)=C(c2ccc(Cl)cc2)C1 [Venetoclax] + COc1cc(Nc2ncc3c(n2)-c2ccc(Cl)cc2C(c2c(F)cccc2OC)=NC3)ccc1C(=O)O [Alisertib] (first compound max 1 µM, 7x7, partner max 10 µM) | NCI-H1648 (Lung Adenocarcinoma) | 0.0579
COc1cccc(OCCCN)c1-c1cc(Nc2cnc(C#N)cn2)n[nH]1 [Prexasertib] + CCc1c2c(nc3ccc(O)cc13)-c1cc3c(c(=O)n1C2)COC(=O)[C@]3(O)CC [SN-38] (first compound max 1 µM, 7x7, partner max 0.3 µM) | NCI-H1648 (Lung Adenocarcinoma) | 0.0114
CC1(C)CCC(CN2CCN(c3ccc(C(=O)NS(=O)(=O)c4ccc(NCC5CCOCC5)c([N+](=O)[O-])c4)c(Oc4cnc5[nH]ccc5c4)c3)CC2)=C(c2ccc(Cl)cc2)C1 [Venetoclax] + Cn1cnc2c(F)c(Nc3ccc(Br)cc3Cl)c(C(=O)NOCCO)cc21 [Selumetinib] (first compound max 1 µM, 7x7, partner max 3 µM) | NCI-H1648 (Lung Adenocarcinoma) | -0.0379
Cc1c2c(nn1C)CSCc1cc(n(C)n1)CSc1cc(c3ccccc3c1)OCCCc1c(C(=O)O)n(C)c3c-2c(Cl)ccc13 [AZD5991] + CC1(C)CCC(CN2CCN(c3ccc(C(=O)NS(=O)(=O)c4ccc(NCC5CCOCC5)c([N+](=O)[O-])c4)c(Oc4cnc5[nH]ccc5c4)c3)CC2)=C(c2ccc(Cl)cc2)C1 [Venetoclax] (first compound max 1 µM, 7x7, partner max 1 µM) | NCI-H1648 (Lung Adenocarcinoma) | -0.0482
C[C@@H](Nc1cc(F)cc(F)c1)c1cc(C(=O)N(C)C)cc2c(=O)cc(N3CCOCC3)oc12 [AZD8186] + C1CN(CCC1(C(=O)N[C@@H](CCO)C2=CC=C(C=C2)Cl)N)C3=NC=NC4=C3C=CN4 [AZD5363] (first compound max 10 µM, 7x7, partner max 10 µM) | NCI-H1648 (Lung Adenocarcinoma) | -0.0377

Item under review: C=CCn1c(=O)c2cnc(Nc3ccc(N4CCN(C)CC4)cc3)nc2n1-c1cccc(C(C)(C)O)n1 [AZD1775] + O=C(c1cc(Cc2n[nH]c(=O)c3ccccc23)ccc1F)N1CCN(C(=O)C2CC2)CC1 [Olaparib] (first compound max 1 µM, partner max 10 µM) . Reported Bliss excess?
-0.0216

Item under review: Cc1c2c(nn1C)CSCc1cc(n(C)n1)CSc1cc(c3ccccc3c1)OCCCc1c(C(=O)O)n(C)c3c-2c(Cl)ccc13 [AZD5991] + CC(=O)O[C@H]1C(=O)[C@@]2(C)[C@H]([C@H](OC(=O)c3ccccc3)[C@]3(O)C[C@H](OC(=O)[C@H](O)[C@@H](NC(=O)c4ccccc4)c4ccccc4)C(C)=C1C3(C)C)[C@]1(OC(C)=O)CO[C@@H]1C[C@@H]2O [Paclitaxel] (first compound max 1 µM, 7x7, partner max 3 µM) . Reported Bliss excess?
-0.0144

Item under review: COc1cc2ncnc(Nc3ccc(F)c(Cl)c3)c2cc1OCCCN1CCOCC1 [Gefitinib] + CC(C)n1c(=O)n(C)c2cnc3cc(F)c(-c4ccc(OCCCN5CCCCC5)nc4)cc3c21 [AZD1390] (first compound max 10 µM, 7x7, partner max 0.3 µM) . Reported Bliss excess?
-0.0521

---

Tested on: BC-1 (B-Cell Non-Hodgkin's Lymphoma)
experiment_summary: combination Emax (second highest fraction inhibited in the dose matrix, 72 h); higher = more inhibition; extreme values may be limits of the assay
parameter_measured: combination Emax

compound | combination Emax
COc1nnc2ccc(N3CCC(c4ccc(OCCN5CCN(C)C(=O)[C@H]5C)cc4)CC3)nn12 [AZD5153] + CC1(C)CCC(CN2CCN(c3ccc(C(=O)NS(=O)(=O)c4ccc(NCC5CCOCC5)c([N+](=O)[O-])c4)c(Oc4cnc5[nH]ccc5c4)c3)CC2)=C(c2ccc(Cl)cc2)C1 [Venetoclax] (first compound max 1 µM, 7x7, partner max 1 µM) | 0.935
COc1cccc(OCCCN)c1-c1cc(Nc2cnc(C#N)cn2)n[nH]1 [Prexasertib] + CCc1c2c(nc3ccc(O)cc13)-c1cc3c(c(=O)n1C2)COC(=O)[C@]3(O)CC [SN-38] (first compound max 1 µM, 7x7, partner max 0.3 µM) | 0.997

Item under review: NC1(C(=O)N[C@@H](CCO)c2ccc(Cl)cc2)CCN(c2ncnc3[nH]ccc23)CC1 [Capivasertib] + C[C@@H]1COCCN1C2=NC(=NC(=C2)C3(CC3)[S@](=N)(=O)C)C4=C5C=CNC5=NC=C4 [AZD6738] (first compound max 10 µM, 7x7, partner max 10 µM) . Reported combination Emax?
0.94

---

Test system: SNU-1 (Gastric Carcinoma)
experiment_summary: combination Emax (second highest fraction inhibited in the dose matrix, 72 h); higher = more inhibition; extreme values may be limits of the assay
parameter_measured: combination Emax

Item under review: CC(=O)c1c(C)c2cnc(Nc3ccc(N4CCNCC4)cn3)nc2n(C2CCCC2)c1=O [Palbociclib] + Cn1cnc2c(F)c(Nc3ccc(Br)cc3Cl)c(C(=O)NOCCO)cc21 [Selumetinib] (first compound max 10 µM, 7x7, partner max 10 µM) . Reported combination Emax?
0.491

---

System: NCI-H1975 (Lung Adenocarcinoma)
experiment_summary: combination Emax (second highest fraction inhibited in the dose matrix, 72 h); higher = more inhibition; extreme values may be limits of the assay
parameter_measured: combination Emax
// print number alone

Item under review: CN(C)CCCOc1ccc(-c2ccc3ncc4c(c3c2)n(C2CCOCC2)c(=O)n4C)cn1 [AZD0156] + C[C@@H]1COCCN1C2=NC(=NC(=C2)C3(CC3)[S@](=N)(=O)C)C4=C5C=CNC5=NC=C4 [AZD6738] (first compound max 1 µM, 7x7, partner max 10 µM) . Reported combination Emax?
0.407

Item under review: CN(C)CCCOc1ccc(-c2ccc3ncc4c(c3c2)n(C2CCOCC2)c(=O)n4C)cn1 [AZD0156] + CCN(CCO)CCCOc1ccc2c(Nc3cc(CC(=O)Nc4cccc(F)c4)[nH]n3)ncnc2c1 [AZD2811] (first compound max 1 µM, 7x7, partner max 1 µM) . Reported combination Emax?
0.3

Item under review: CCN(CCO)CCCOc1ccc2c(Nc3cc(CC(=O)Nc4cccc(F)c4)[nH]n3)ncnc2c1 [AZD2811] + C[C@@H]1COCCN1C2=NC(=NC(=C2)C3(CC3)[S@](=N)(=O)C)C4=C5C=CNC5=NC=C4 [AZD6738] (first compound max 1 µM, 7x7, partner max 10 µM) . Reported combination Emax?
0.483

Item under review: CC1(C)CCC(CN2CCN(c3ccc(C(=O)NS(=O)(=O)c4ccc(NCC5CCOCC5)c([N+](=O)[O-])c4)c(Oc4cnc5[nH]ccc5c4)c3)CC2)=C(c2ccc(Cl)cc2)C1 [Venetoclax] + C[C@@H]1COCCN1C2=NC(=NC(=C2)C3(CC3)[S@](=N)(=O)C)C4=C5C=CNC5=NC=C4 [AZD6738] (first compound max 1 µM, 7x7, partner max 10 µM) . Reported combination Emax?
0.433

Item under review: Cn1cnc2c(F)c(Nc3ccc(Br)cc3Cl)c(C(=O)NOCCO)cc21 [Selumetinib] + CCN(CCO)CCCOc1ccc2c(Nc3cc(CC(=O)Nc4cccc(F)c4)[nH]n3)ncnc2c1 [AZD2811] (first compound max 10 µM, 7x7, partner max 1 µM) . Reported combination Emax?
0.423

---

Property: combination Emax; scope: individual compounds
Test system: JURL-MK1 (Chronic Myelogenous Leukemia)
experiment_summary: combination Emax (second highest fraction inhibited in the dose matrix, 72 h); higher = more inhibition; extreme values may be limits of the assay

compound | experimental_result
CN(CCO)CC[C@H](CSc1ccccc1)Nc1ccc(S(=O)(=O)NC(=O)c2ccc(N3CCC([C@@H](O)c4ccccc4-c4ccc(Cl)cc4)CC3)cc2)cc1S(=O)(=O)C(F)(F)F [AZD4320] + C[C@@H]1COCCN1C2=NC(=NC(=C2)C3(CC3)[S@](=N)(=O)C)C4=C5C=CNC5=NC=C4 [AZD6738] (first compound max 1 µM, 7x7, partner max 10 µM) | 1
CC1(C)CCC(CN2CCN(c3ccc(C(=O)NS(=O)(=O)c4ccc(NCC5CCOCC5)c([N+](=O)[O-])c4)c(Oc4cnc5[nH]ccc5c4)c3)CC2)=C(c2ccc(Cl)cc2)C1 [Venetoclax] + Cn1cnc2c(F)c(Nc3ccc(Br)cc3Cl)c(C(=O)NOCCO)cc21 [Selumetinib] (first compound max 1 µM, 7x7, partner max 3 µM) | 0.876
CC1(C)CCC(CN2CCN(c3ccc(C(=O)NS(=O)(=O)c4ccc(NCC5CCOCC5)c([N+](=O)[O-])c4)c(Oc4cnc5[nH]ccc5c4)c3)CC2)=C(c2ccc(Cl)cc2)C1 [Venetoclax] + COc1cc(Nc2ncc3c(n2)-c2ccc(Cl)cc2C(c2c(F)cccc2OC)=NC3)ccc1C(=O)O [Alisertib] (first compound max 1 µM, 7x7, partner max 10 µM) | 0.964

Item under review: CN(CCO)CC[C@H](CSc1ccccc1)Nc1ccc(S(=O)(=O)NC(=O)c2ccc(N3CCC([C@@H](O)c4ccccc4-c4ccc(Cl)cc4)CC3)cc2)cc1S(=O)(=O)C(F)(F)F [AZD4320] + Cn1cnc2c(F)c(Nc3ccc(Br)cc3Cl)c(C(=O)NOCCO)cc21 [Selumetinib] (first compound max 1 µM, 7x7, partner max 3 µM) . Reported combination Emax?
0.999
